Molecular target: NET (Rattus norvegicus)
Sequence (Q63380 1-617): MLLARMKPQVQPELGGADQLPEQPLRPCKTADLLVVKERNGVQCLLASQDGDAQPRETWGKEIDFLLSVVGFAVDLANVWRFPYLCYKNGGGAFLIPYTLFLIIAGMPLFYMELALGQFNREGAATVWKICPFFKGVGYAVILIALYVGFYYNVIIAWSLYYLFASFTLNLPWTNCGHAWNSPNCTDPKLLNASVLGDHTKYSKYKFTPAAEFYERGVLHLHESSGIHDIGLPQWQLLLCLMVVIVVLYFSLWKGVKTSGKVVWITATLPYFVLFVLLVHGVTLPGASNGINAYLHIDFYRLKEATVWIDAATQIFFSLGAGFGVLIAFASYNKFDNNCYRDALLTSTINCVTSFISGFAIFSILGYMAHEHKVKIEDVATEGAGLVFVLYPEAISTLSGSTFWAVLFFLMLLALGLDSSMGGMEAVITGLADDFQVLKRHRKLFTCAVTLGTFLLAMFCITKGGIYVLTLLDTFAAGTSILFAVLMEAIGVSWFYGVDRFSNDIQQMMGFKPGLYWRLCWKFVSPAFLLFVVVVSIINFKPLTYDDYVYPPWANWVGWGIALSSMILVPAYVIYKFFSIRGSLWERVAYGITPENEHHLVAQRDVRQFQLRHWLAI
Assay: NET uptake inhibition, [3H]NE
Settings: Table 4; rat brain
result type: pIC50
Would you please state pIC50, meaning minus log10 of the concentration in mol/L, as a bare number?

COc1ccc(CN[C@H]2C[C@H](C(c3ccccc3)c3ccccc3)OC[C@H]2O)cc1 [(+)-29g]    5.74
O[C@H]1C[C@H](C(c2ccccc2)c2ccccc2)OC[C@@H]1NCc1ccc(F)cc1 [(+)-29b]    5.95
COc1ccc(CN[C@@H]2CO[C@H](C(c3ccccc3)c3ccccc3)C[C@H]2O)c(OC)c1 [(−)-29e]    6.94
COc1cc(CN[C@@H]2CO[C@H](C(c3ccccc3)c3ccccc3)C[C@H]2O)cc(OC)c1 [(−)-29f]    6.97

Can you share its pIC50? I mean this compound: O[C@@H]1CO[C@H](C(c2ccccc2)c2ccccc2)C[C@H]1NCc1ccccc1 [(−)-29h]
6.47

Can you share its pIC50? I mean this compound: O[C@@H]1C[C@@H](C(c2ccccc2)c2ccccc2)OC[C@H]1NCc1ccc(F)cc1 [(−)-29b]
7.88

Can you share its pIC50? I mean this compound: O[C@@H]1CO[C@@H](C(c2ccccc2)c2ccccc2)C[C@@H]1NCc1ccccc1 [(+)-29h]
5.49

Can you share its pIC50? I mean this compound: O[C@H]1C[C@H](C(c2ccccc2)c2ccccc2)OC[C@@H]1NCCc1ccc(F)cc1 [(+)-29c]
7.11

Can you share its pIC50? I mean this compound: COc1ccc(CN[C@@H]2C[C@@H](C(c3ccccc3)c3ccccc3)OC[C@@H]2O)cc1 [(−)-29g]
6.12

Can you share its pIC50? I mean this compound: O[C@@H]1C[C@@H](C(c2ccccc2)c2ccccc2)OC[C@H]1NCCc1ccc(F)cc1 [(−)-29c]
6.36

----------
Target: SERT (Rattus norvegicus)
Construct: rat striatum was the source for DAT, and cerebral cortex for SERT and NET; from tissue; host or cells: rat cerebral cortex
Sequence (P31652 whole entry): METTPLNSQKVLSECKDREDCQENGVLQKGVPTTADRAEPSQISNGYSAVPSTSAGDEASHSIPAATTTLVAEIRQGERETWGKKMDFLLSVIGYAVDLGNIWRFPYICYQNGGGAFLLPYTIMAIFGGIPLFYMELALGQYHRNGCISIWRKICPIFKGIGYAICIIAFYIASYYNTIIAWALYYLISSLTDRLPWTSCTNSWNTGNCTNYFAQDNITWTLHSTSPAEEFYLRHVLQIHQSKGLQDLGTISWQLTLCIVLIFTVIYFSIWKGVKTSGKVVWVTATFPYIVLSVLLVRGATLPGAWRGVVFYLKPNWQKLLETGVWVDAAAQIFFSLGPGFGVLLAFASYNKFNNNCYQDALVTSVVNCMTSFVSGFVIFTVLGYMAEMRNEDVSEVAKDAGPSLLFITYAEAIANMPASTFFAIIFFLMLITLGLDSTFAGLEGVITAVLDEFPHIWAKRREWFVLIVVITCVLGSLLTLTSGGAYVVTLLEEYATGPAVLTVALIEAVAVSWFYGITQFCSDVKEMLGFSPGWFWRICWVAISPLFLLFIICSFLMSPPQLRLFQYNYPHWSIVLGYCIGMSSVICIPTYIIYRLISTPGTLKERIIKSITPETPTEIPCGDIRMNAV
Test: Inhibition of [3H]citalopram binding to SERT
Conditions: Table 3; selectivity ratio of IC50 values
// NB: equality with 3 counts as 0; only SERT binding/DAT binding strictly below is 1

Answered cases to consult:
Fc1ccc(CN[C@H]2CC[C@@H](C(c3ccccc3)c3ccccc3)OC2)cc1F (relative stereo) [Compound 16j]    0
c1ccc(CN[C@H]2CC[C@@H](C(c3ccccc3)c3ccccc3)OC2)cc1 (relative stereo) [Compound 16k]    0
c1ccc(C(c2ccccc2)C2CCC(NCc3cc4ccccc4[nH]3)CO2)cc1 (stereo not shown) [Compound 16g]    0
Ic1ccc(CN[C@H]2CC[C@@H](C(c3ccccc3)c3ccccc3)OC2)cc1 (relative stereo) [Compound 16m]    0
Brc1ccc(CN[C@H]2CC[C@@H](C(c3ccccc3)c3ccccc3)OC2)cc1 (relative stereo) [Compound 16l]    0
c1ccc(C(c2ccccc2)[C@@H]2CC[C@H](NCc3ccc4[nH]ccc4c3)CO2)cc1 (relative stereo) [Compound 16n]    1
Fc1ccc(CN[C@H]2CC[C@H](C(c3ccccc3)c3ccccc3)OC2)cc1 (relative stereo) [Compound 16a]    0
Fc1ccc(CN[C@H]2CC[C@@H](C(c3ccccc3)c3ccccc3)OC2)cc1 (relative stereo) [Compound 16b]    0
Fc1ccc(CCN[C@H]2CC[C@@H](C(c3ccccc3)c3ccccc3)OC2)cc1 (relative stereo) [Compound 16p]    0
c1ccc(C(c2ccccc2)C2CCC(NCc3c[nH]c4ccccc34)CO2)cc1 (stereo not shown) [Compound 16f]    0

Take the compound Fc1ccc(CN[C@H]2CCO[C@@H](C(c3ccccc3)c3ccccc3)C2)cc1 (relative stereo) and say whether its SERT binding/DAT binding is less than 3.
1

Take the compound Clc1ccc(CN[C@H]2CC[C@@H](C(c3ccccc3)c3ccccc3)OC2)cc1Cl (relative stereo) [Compound 16i] and say whether its SERT binding/DAT binding is less than 3.
1

----------
Target: DAT (Rattus norvegicus, UniProt P23977)
Construct: rat striatum was the source for DAT, and cerebral cortex for SERT and NET; from tissue; P2 synaptosomal fraction for uptake
Sequence (P23977 whole entry): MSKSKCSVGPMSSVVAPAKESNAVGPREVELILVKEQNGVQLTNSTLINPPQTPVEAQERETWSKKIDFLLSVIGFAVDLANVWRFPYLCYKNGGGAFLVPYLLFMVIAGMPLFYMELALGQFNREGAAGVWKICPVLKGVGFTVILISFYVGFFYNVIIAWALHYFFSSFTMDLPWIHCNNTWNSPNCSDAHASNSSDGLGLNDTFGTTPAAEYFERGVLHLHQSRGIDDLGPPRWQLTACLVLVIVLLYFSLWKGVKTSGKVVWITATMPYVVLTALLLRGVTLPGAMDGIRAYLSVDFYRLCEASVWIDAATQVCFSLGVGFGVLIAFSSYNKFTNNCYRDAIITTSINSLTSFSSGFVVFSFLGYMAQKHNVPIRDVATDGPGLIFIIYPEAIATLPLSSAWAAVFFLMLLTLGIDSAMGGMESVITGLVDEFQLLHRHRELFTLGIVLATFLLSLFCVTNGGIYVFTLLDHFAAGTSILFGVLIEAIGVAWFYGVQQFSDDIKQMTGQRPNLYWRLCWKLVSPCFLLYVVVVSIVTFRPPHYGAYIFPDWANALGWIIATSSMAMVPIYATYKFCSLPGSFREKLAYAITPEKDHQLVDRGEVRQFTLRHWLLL
Experiment: Inhibition of [3H]WIN 35,428 binding to DAT
Conditions: Table 4; rat brain; read-out: DAT binding, IC50, [3H]Win 35,428
result type: IC50 (µM)
Give just the numeric value; µM need not be written.

COc1cc(CN[C@@H]2CO[C@H](C(c3ccccc3)c3ccccc3)C[C@H]2O)cc(OC)c1 [(−)-29f]    0.298
O[C@@H]1C[C@@H](C(c2ccccc2)c2ccccc2)OC[C@H]1NCc1ccc2[nH]ccc2c1 [(−)-32b]    0.705
O[C@H]1C[C@H](C(c2ccccc2)c2ccccc2)OC[C@@H]1NCc1ccc2[nH]ccc2c1 [(+)-32b]    0.494
O[C@@H]1C[C@@H](C(c2ccccc2)c2ccccc2)OC[C@H]1NCCc1ccc(F)cc1 [(−)-29c]    1.05
Oc1ccc(CN[C@@H]2CC[C@H](C(c3ccccc3)c3ccccc3)OC2)cc1 [(+)-37a]    0.141
O[C@H]1C[C@H](C(c2ccccc2)c2ccccc2)OC[C@@H]1NCc1ccccc1 [(+)-29d]    0.596

Can you share its IC50? I mean this compound: O[C@H]1C[C@H](C(c2ccccc2)c2ccccc2)OC[C@@H]1NCCc1ccc(F)cc1 [(+)-29c]
0.443

Can you share its IC50? I mean this compound: COc1ccc(CN[C@@H]2C[C@@H](C(c3ccccc3)c3ccccc3)OC[C@@H]2O)cc1 [(−)-29g]
0.771

Can you share its IC50? I mean this compound: O[C@@H]1CO[C@@H](C(c2ccccc2)c2ccccc2)C[C@@H]1NCc1ccccc1 [(+)-29h]
1.25

----------
Counter-ions that a name gives are not always drawn.
result type: melting point

The following compounds have reported results that may help.
Fc1ccc(CCN[C@H]2CC[C@@H](C(c3ccccc3)c3ccccc3)OC2)cc1 (relative stereo) (as salt: oxalate) [Compound 16p]    240 to 242 °C
O[C@H]1C[C@H](C(c2ccccc2)c2ccccc2)OC[C@@H]1NCc1ccccc1 (as salt: oxalate) [(+)-29d]    249 to 251 °C
O[C@@H]1C[C@@H](C(c2ccccc2)c2ccccc2)OC[C@H]1NCCc1ccc(F)cc1 (as salt: oxalate) [(−)-29c]    205 to 207 °C
O[C@@H]1C[C@@H](C(c2ccccc2)c2ccccc2)OC[C@H]1NCc1ccccc1 (as salt: oxalate) [(−)-29d]    250 to 252 °C
c1ccc(C(c2ccccc2)C2CCC(NCc3c[nH]c4ccccc34)CO2)cc1 (stereo not shown) (as salt: oxalate) [Compound 16f]    177 to 179 °C

Can you share its melting point? I mean this compound: Ic1ccc(CN[C@H]2CC[C@@H](C(c3ccccc3)c3ccccc3)OC2)cc1 (relative stereo) (as salt: oxalate) [Compound 16m]
243 to 244 °C

Can you share its melting point? I mean this compound: c1ccc(C(c2ccccc2)C2CCC(NCc3cc4ccccc4[nH]3)CO2)cc1 (stereo not shown) (as salt: oxalate) [Compound 16g]
215 to 216 °C

----------
Target: DAT (Rattus norvegicus, UniProt P23977)
Construct: rat striatum was the source for DAT, and cerebral cortex for SERT and NET; from tissue; P2 synaptosomal fraction for uptake
Assay: Inhibition of [3H]DA uptake by DAT into rat striatal synaptosomes
Format: biochemical
Settings: Table 1; read-out: Inhibition of [3H]DA uptake by DAT, IC50
result type: pIC50
Would you please state pIC50, meaning minus log10 of the concentration in mol/L, as a bare number?

Can you share its pIC50? I mean this molecule: c1ccc(CN[C@H]2CC[C@@H](C(c3ccccc3)c3ccccc3)OC2)cc1 (relative stereo) [Compound 16k]
6.62

----------
Molecular target: NET (Rattus norvegicus)
Assay: Inhibition of [3H]nisoxetine binding to NET
Conditions: Table 1; read-out: Inhibition of [3H]nisoxetine binding to NET, IC50
This section presents molecules with their documented pIC50 values.
Would you please state pIC50, meaning minus log10 of the concentration in mol/L, as a bare number?

The following molecules have reported results that may help.
Fc1ccc(CN[C@@H]2CCO[C@@H](C(c3ccccc3)c3ccccc3)C2)cc1 (relative stereo)    4.76
Fc1ccc(CN[C@H]2CC[C@H](C(c3ccccc3)c3ccccc3)OC2)cc1 (relative stereo) [Compound 16a]    4.90
c1ccc(CN[C@H]2CC[C@@H](C(c3ccccc3)c3ccccc3)OC2)cc1 (relative stereo) [Compound 16k]    6.56

Can you share its pIC50? I mean this molecule: Fc1ccc(CN[C@H]2CCO[C@@H](C(c3ccccc3)c3ccccc3)C2)cc1 (relative stereo)
5.29

----------
Counter-ions that a name gives are not always drawn.
result type: melting point

The following compounds have reported results that may help.
Fc1ccc(CN[C@@H]2CCO[C@@H](C(c3ccccc3)c3ccccc3)C2)cc1 (relative stereo) (as salt: oxalate) [Compound 7b]    185 to 187 °C
c1ccc(CN[C@H]2CC[C@@H](C(c3ccccc3)c3ccccc3)OC2)cc1 (relative stereo) (as salt: oxalate) [Compound 16k]    208 to 210 °C

Can you share its melting point? I mean this compound: Fc1ccc(CN[C@H]2CC[C@@H](C(c3ccccc3)c3ccccc3)OC2)cc1 (relative stereo) (as salt: oxalate) [Compound 16b]
229 to 230 °C

Can you share its melting point? I mean this compound: Oc1ccc(CN[C@H]2CC[C@@H](C(c3ccccc3)c3ccccc3)OC2)cc1 (as salt: oxalate) [(−)-37a]
136 to 138 °C

Can you share its melting point? I mean this compound: COc1ccc(CN[C@H]2CC[C@@H](C(c3ccccc3)c3ccccc3)OC2)cc1 (relative stereo) (as salt: oxalate) [Compound 16e]
215 to 217 °C

Can you share its melting point? I mean this compound: COc1cc(CN[C@@H]2CO[C@H](C(c3ccccc3)c3ccccc3)C[C@H]2O)cc(OC)c1 (as salt: oxalate) [(−)-29f]
245 to 247 °C

Where these numbers come from: patent US8017791B2
